- Test system: cockroaches
- assay-comment: Topical toxicity test of alcohols and/or PD23 mineral oil, dead at 24 h (Example 10)
- Format: in vivo, Blattella germanica
- run-parameters: Table 14, composite data of the replicates
# dead at 24 h under 1 gets Yes, anything at or over 1 gets No.

Check out these entries, answers already filled in.
CC(C)(C)O [tertiary butyl alcohol]: No
CCCCCCCCCCCO [Composition 1-undecanol, 1-undecanol]: No
CCCCOCCO [2-butoxyethanol]: Yes

Is 1 strictly greater than the compound's reported # dead at 24 h? compound: CCCCCCO [Composition 1-hexanol, 1-hexanol]
No

Is 1 strictly greater than the compound's reported # dead at 24 h? compound: CCCCCCCCO [Composition 1-octanol, 1-octanol]
No

Is 1 strictly greater than the compound's reported # dead at 24 h? compound: OCCc1ccccc1 [2-phenylethanol]
No

Is 1 strictly greater than the compound's reported # dead at 24 h? compound: CC(C)O [Isopropyl alcohol]
Yes

Is 1 strictly greater than the compound's reported # dead at 24 h? compound: CCCCCCCCCCCCCCO [1-tetradecanol]
No

Is 1 strictly greater than the compound's reported # dead at 24 h? compound: CCCCCCCCCCCCO [Composition 1-dodecanol, 1-dodecanol]
No

----------
- System: cockroaches
- assay-comment: Topical toxicity test of various compounds and/or PD23 mineral oil, dead at 24 h (Example 12)
- Type: in vivo, Blattella germanica
- run-parameters: Table 17, composite data, calculated proportion
Returns the class for an entry based on its Proportion dead at 24 h. Class ranges: low range = under 0.03, mid range = from 0.03 up to 0.1, high range = 0.1 and over

Cc1ccccc1 [Toluene (108-88-3) (0.90 mg), Toluene]: low range
CC(=O)OCC(COC(C)=O)OC(C)=O [Triacetin (102-76-1) (2.0 mg), Triacetin]: mid range
COCOC [Dimethoxymethane]: low range
ClC(Cl)Cl [Chloroform-anhydrous (67-66-3) (2.0 mg), Chloroform]: mid range
COC(C)(C)C [Methyl t-butyl ether]: high range

Here is another compound to look at.
Which bin should I file CCOCCO [2-ethoxyethanol] under?
mid range

----------
- System: cockroaches
- assay-comment: Topical toxicity test of various compounds and/or PD23 mineral oil, dead at 24 h (Example 12)
- Format: in vivo, Blattella germanica
- run-parameters: Table 17, composite data, calculated proportion
Assign yes (1) to entries whose Proportion dead at 24 h meets or exceeds 0.1; assign no (0) to the rest.

Check out these entries, answers already filled in.
CCC(C)=O: no (0)
CC(Cl)(Cl)Cl [Methyl chloroform (71-55-6) (2.00 mg), Methyl chloroform]: no (0)
CC(=O)CC(C)C: no (0)
C1CCOC1 [Tetrahydrofuran (109-99-9) (0.80 mg), Tetrahydrofuran]: yes (1)
CCOCC: no (0)
ClCCl: no (0)
c1ccncc1: no (0)
CC(=O)OC(C)C [Isopropyl acetate (108-21-4) (1.0 mg), Isopropyl acetate]: yes (1)

Here is another compound to look at.
Reported Proportion dead at 24 h reaches at least 0.1 for O=C1CCCO1 ?
yes (1)

// provenance: patent US8231887B2
